System: SK-MEL-28 melanoma
Assay: NCI-60 one-dose screen, 48 h
Conditions: 10 µM unless noted
About 83,000 compounds went through this panel and 20% of them were active in at least one assay; those are over-represented in the sample as a whole. Activity calls are given as the source filed them. How the source made its calls: active means growth percent below 10; inactive means the rest.
Response enum: active, inactive

Recorded test call requested for `COc1ccccc1NC(=O)N=Nc1c(O)[nH]c2ccccc12`
inactive

Recorded test call requested for `N#Cc1c(-c2ccc(Cl)cc2)c(C#N)c2c(C#N)c(N)nn2c1N`
inactive

Recorded test call requested for CCN1C(=S)N(c2ccccc2)C2C1NN=c1s/c(=C3\C(=O)N(C(C)C)c4ccccc43)c(=O)n12 (centres undefined)
inactive

Recorded test call requested for `COC(=O)/C=C1/SC(=Nc2ccc(C(F)(F)F)cc2)N(CCc2c[nH]c3ccc(O)cc23)C1=O`
active

Recorded test call requested for `O=C(/C=C/c1cccc(Cl)c1)c1cccc(OCCCOc2cccc(C(=O)/C=C/c3cccc(Cl)c3)c2)c1`
inactive

Recorded test call requested for `Nc1n[nH]c2cccc(C#Cc3cccc(NC(=O)c4cc(F)cc(C(F)(F)F)c4)c3)c12`
inactive

Recorded test call requested for `Cc1ccc(Nn2c(SCC(=O)Nc3nc(-c4ccccc4)cs3)nc(C)c2C)cc1`
inactive

Recorded test call requested for `O=C(N/N=C/c1c(Cl)cccc1Cl)c1cccnc1Nc1cccc(C(F)(F)F)c1`
inactive

Recorded test call requested for Cc1nc2sc(C(=O)Nc3cccc(Br)c3)c(N)c2cc1C(O)c1ccccc1 (centres undefined)
inactive

Recorded test call requested for `COc1cccc(/C=C2\COc3ccc(O)c(O)c3C2=O)c1`
inactive

Recorded test call requested for `CCOC(=O)Cc1cnc(N/N=C(\C)c2cc3ccccc3o2)s1`
inactive

Recorded test call requested for `Cc1cccc(/C=C/c2c(C(=O)/C=C/c3ccccc3)c(C)nc3ccccc23)c1`
active

Recorded test call requested for `CCSc1nc2scc(C)c2c(=O)[nH]1`
inactive

Recorded test call requested for O=C(NCc1ccc(Cl)cc1Cl)C1CCC(=O)N1c1cccs1 (centres undefined)
inactive

Recorded test call requested for CC1CCc2c(C(=O)Nc3ncc(Cc4cccc([N+](=O)[O-])c4)s3)csc2C1 (centres undefined)
inactive

Recorded test call requested for `O=C(Nc1ccc(Oc2cccc(Cl)c2)c(Cl)c1)c1cnccn1`
inactive

Recorded test call requested for `COC(=O)[C@@H](CCCCNC(=O)[C@]12CCC(C)(C)C[C@@H]1C1=CC[C@@H]3[C@@]4(C)C/C(=C/c5ccco5)C(=O)C(C)(C)[C@@H]4CC[C@@]3(C)[C@]1(C)CC2)NC(=O)[C@]12CCC(C)(C)C[C@@H]1C1=CC[C@@H]3[C@@]4(C)C/C(=C/c5ccco5)C(=O)C(C)(C)[C@@H]4CC[C@@]3(C)[C@]1(C)CC2`
inactive

Recorded test call requested for CCC(C(=O)[C@@H](C)[C@@H](O)[C@H](C)[C@@H]1O[C@@H]([C@@H](CC)C(=O)ONC(=O)c2ccccc2)CC[C@@H]1C)[C@H]1O[C@]2(C=CC(=O)[C@]3(CC[C@@](C)([C@H]4CC[C@](O)(CC)[C@H](C)O4)O3)O2)[C@H](C)C[C@@H]1C (some centres undefined)
inactive

Recorded test call requested for `COc1cc2ncnc(Nc3ccc(F)c(Cl)c3)c2cc1OCC(=O)N1CCN(c2ccccc2)CC1`
inactive

====

Tested on: 786-0 renal
Experiment: NCI-60 one-dose screen, 48 h
Details: 10 µM unless noted
This is part of a sample that, as a whole, favours compounds with a hit. Of some 83,000 tested, about 20% had one in any assay. Active and inactive are the calls of the source. The calls were made as follows: active = growth percent below 10; inactive = the rest.
Response enum: active, inactive

Recorded test call requested for `O=S(=O)(Nc1ccc(F)cc1F)c1ccc(-c2cnc(C3CC3)o2)cc1`
inactive

Recorded test call requested for COC(=O)C1Cc2ccccc2CN1C(=O)c1ccc2c(c1)Cc1ccccc1-2 (stereo unspecified)
inactive

Recorded test call requested for `CSc1oc(C)nc1[P+](c1ccccc1)(c1ccccc1)c1ccccc1`
inactive

Recorded test call requested for `CCCNC(=O)Nc1ccc2cc3ccc(NC(=O)NCCC)cc3nc2c1`
inactive

Recorded test call requested for `COc1c(B(O)O)cccc1-c1nc2c(F)cc3[nH]ncc3c2c2c1CCCC2`
active

Recorded test call requested for `N#Cc1nc(-c2ccc(F)cc2)oc1S(=O)(=O)N1CCCCC1`
inactive

Recorded test call requested for `O=C(CN1C(=O)S/C(=C\c2ccccc2)C1=O)Nc1ncc(Cc2ccccc2Cl)s1`
inactive

Recorded test call requested for O=C(CN1C(=O)NC2NC(=O)NC21)N/N=C/c1ccccc1[N+](=O)[O-] (stereo unspecified)
inactive

Recorded test call requested for `COc1ccc2cc1Oc1ccc(cc1)C[C@H]1c3c(cc4c(c3Oc3cc5c(cc3OC)CCN(C)[C@@H]5C2)OCO4)CCN1C`
inactive

Recorded test call requested for `CCN(CC)CCCCCNc1cc(OC(=O)c2ccc(Cl)cc2)cc2cccnc12`
inactive

Recorded test call requested for `Cc1csc(Nc2nc(-c3ccccn3)nc(C(Cl)(Cl)Cl)n2)n1`
inactive

Recorded test call requested for `O=C(NCCNc1nccc(Nc2ccc(S(=O)(=O)Nc3ccccn3)cc2)n1)c1cccc([N+](=O)[O-])c1`
inactive

Recorded test call requested for `O=C(Nc1ccc(Oc2cccc(F)c2)c(Cl)c1)c1cccnc1`
inactive

Recorded test call requested for `O=c1c2cccc3c(N4CCCC4)ccc(c32)c2nc3ccccc3n12`
inactive

Recorded test call requested for `COc1ccc(-c2nc3c(ncc4ccc(=O)[nH]c43)s2)cc1`
inactive

Recorded test call requested for CCN(CC)CC(O)COc1c(Br)c(Br)c(Br)c2c1OC(C)(C)C2 (stereo unspecified)
inactive

Recorded test call requested for `CSc1nc2ccccc2cc1/C=C1/C=C(c2ccccc2)NC1=O`
inactive

Recorded test call requested for `Cc1cc(C(=O)O)c(C)n1-c1cccc(C(=O)O)c1`
inactive

Recorded test call requested for `Cc1ccc(-c2nc(N3CCCNCC3)c3oc(-c4ccc(C)cc4)nc3n2)cc1`
active

Recorded test call requested for O=CN1N=C(c2cccc(Nc3ccnc4cc(Cl)ccc34)c2)CC1c1ccccc1 (stereo unspecified)
inactive

Recorded test call requested for N#CC1=C(N)Oc2c(ccc3ccccc23)C1c1ccccc1 (stereo unspecified)
inactive

====

Test system: MDA-MB-435 melanoma
Assay: NCI-60 one-dose screen, 48 h
Settings: 10 µM unless noted
This is part of a sample that, as a whole, favours compounds with a hit. Of some 83,000 tested, about 20% had one in any assay. Calls of active or inactive are those of the source. The calls were made as follows: active = growth percent below 10; inactive = the rest.
Response enum: true (1) (active), false (0) (inactive)

Recorded test call requested for `Oc1c(I)cc(I)cc1CNCCN(Cc1ccccn1)Cc1ccccn1`
true (1)

Recorded test call requested for `C=C1C(=O)O[C@H]2[C@H]1CC/C(Cn1cc(-c3ccccc3)nn1)=C\CC[C@@]1(C)O[C@@H]21`
true (1)

Recorded test call requested for `Cc1ccc2c(n1)C(=O)C(Br)=C(CC(C)C)C2=O`
false (0)

Recorded test call requested for `O=C(Nc1nc(-c2ccc(Cl)cc2)nc2c1sc(=S)n2-c1ccccc1)C(F)(F)F`
false (0)

Recorded test call requested for NC(Cc1ccc(O)c([N+](=O)[O-])c1)C(=O)O (stereo not given)
false (0)

====

Please go through the items and note down their growth.
Test system: LOX IMVI melanoma
Experiment: NCI-60 one-dose screen, 48 h (100 = growth as untreated, 0 = no growth, -100 = all killed)
Conditions: 10 µM unless noted
Compounds without any hit were thinned out: in the full panel of roughly 83,000, 20% have a hit. The source made the active and inactive calls. How the source made its calls: active means growth percent below 10; inactive means the rest.

Which value of growth has been reported for `COC(=O)c1c2c(c(C)[n+]([O-])c1C)C(=O)C(NCc1cccc(OC)c1)=CC2=O` in the records?
22% (inactive)

Which value of growth has been reported for `O=C1/C(=C\c2ccc3nccnc3c2)SC(=S)N1CCc1ccc(O)cc1` in the records?
79.4% (inactive)

Which value of growth has been reported for Cc1cc(C)c2c(c1)N(C)c1ncnc(-n3cnc4cc(C)ccc43)c1CC2C (stereo not given) in the records?
46.5% (inactive)

Which value of growth has been reported for `COc1cc2c(cc1OCCCN1CCN(CCCOc3cc4c(cc3OC)C(=O)N3CCC[C@H]3C=N4)CC1)C=CC(C)(C)O2` in the records?
-98.6% (active)

Which value of growth has been reported for CN(C)CC1CCC(CN(C)C)C1=O (stereo not given) in the records?
106% (inactive)

====

Please go through the items and note down their growth.
Tested on: NCI-H522 lung
Assay: NCI-60 one-dose screen, 48 h (100 = growth as untreated, 0 = no growth, -100 = all killed)
Conditions: 10 µM unless noted
The panel holds about 83,000 compounds, 20% with a hit somewhere; the sample as a whole holds those more often.
Numeric only. Scale: %

Which value of growth has been reported for `O=C(CN1CCCCC1)Nc1nc(-c2cc3ccccc3oc2=O)cs1` in the records?
93.6

Which value of growth has been reported for `CSc1nc(N)c(NS(=O)(=O)c2ccc(C(C)=O)cc2)c(=O)[nH]1` in the records?
99.6

Which value of growth has been reported for `CCOC(=O)c1c2c(n3cccc(F)c13)C(=O)c1ncccc1C2=O` in the records?
1.44

Which value of growth has been reported for `CCCCNCCCCCNc1cc(OC)cc2cccnc12` in the records?
94

Which value of growth has been reported for O=C(NCc1ccc(Cl)cc1Cl)C1CCC(=O)N1c1cccs1 (stereo unspecified) in the records?
76.8

Which value of growth has been reported for `COc1c(C(=O)Nc2ccc(C)c(Br)c2)ccc2ccccc12` in the records?
85

Which value of growth has been reported for `NS(=O)(=O)c1ccc(N=Nc2c(O)n(Cc3ccccc3)c3ccc(Cl)cc23)cc1` in the records?
69.1

Which value of growth has been reported for `Oc1c(Br)cc(Br)c2ccc(Cn3cc(-c4ccc(C(F)(F)F)cc4)nn3)nc12` in the records?
-43.5

Which value of growth has been reported for `CCOCCNC1=C(Cl)C(=O)c2ccccc2C1=O` in the records?
82.9

Which value of growth has been reported for `O=C(/C=C/c1cccc(Cl)c1)c1ccc(Nc2nc(Nc3ccc(F)cc3)nc(Nc3ccc(Cl)cc3)n2)cc1` in the records?
102

Which value of growth has been reported for `NC(N)=NCCCCCNc1noc(Cc2c[nH]c3cc(Br)ccc23)n1` in the records?
47.8
